Each entry below carries its recorded IC50.
# targetEntity: UniProtKB P42345
# assay: mTOR enzyme assay (DELFIA format, purified enzyme)
# experimentalContext: 800 ng/ml FLAG-TOR, 100 μM ATP, 1.25 μM His6-S6K; read-out: mTOR Kinase IC50
Numbers only here, please. The scale is nM.

INSERT INTO assay_data (compound, endpointlabel, measureunit, experimentalvalue) VALUES
  ('Cn1cc(CNc2cccc(Oc3cc(=O)[nH]c4ccccc34)c2)cn1', 'IC50', 'nM', 170),
  ('O=c1cc(Oc2cccnc2)c2ccccc2[nH]1 [drawing 388]', 'IC50', 'nM', 1160);

Record summary for O=c1cc(Oc2cccc(-c3cccc(NCc4cccnc4)c3)c2)c2ccccc2[nH]1 : reported IC50 = 510
